experimentNotes: NCI Yeast Anticancer Drug Screen. Data for the mlh1 strain (AID 171);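 further: 0% = growth of vehicle-treated control cultures of the same strain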
reportedConditions: S. cerevisiae mlh1 strain growth inhibition; at 33.0 µM; active compounds read high
Compounds without any hit were thinned out: in the full panel of roughly 79,000, 15% have a hit.
propertyMeasured: growth inhibition (%)
Give just the number in %; leave the unit off.

>  <compound>
O=c1ssc(=Nc2ccccc2)n1-c1ccccc1

>  <unitAnnotation>
%

>  <growth inhibition>
17

$$$$
>  <compound>
c1ccc(-c2cnc3ccccc3c2)cc1

>  <unitAnnotation>
%

>  <growth inhibition>
-9

$$$$
>  <compound>
COc1cc(CSc2ccc(O)cc2)cc(O)c1O

>  <unitAnnotation>
%

>  <growth inhibition>
2

$$$$
>  <compound>
O=C1OC(OC/C(Br)=C(\Br)COC2OC(=O)C(Cl)=C2Cl)C(Cl)=C1Cl (stereo not drawn)

>  <unitAnnotation>
%

>  <growth inhibition>
4

$$$$
>  <compound>
O=C1c2cccnc2C(=O)C2C3C=CC(C3)C12 (stereo not drawn)

>  <unitAnnotation>
%

>  <growth inhibition>
98

$$$$

**Q:** growth inhibition lookup needed for Cc1ccc2nc(-c3cccc([N+](=O)[O-])c3)oc(=O)c2c1 , thanks.
**A:** -17

**Q:** Input N#CC(C#N)=NNc1ccc(S(=O)(=O)O)cc1
**A:** 11

**Q:** Same thing, different compound: O=C(O)c1cc2ccccc2c2c1C(=O)c1ccccc1-2
**A:** 95

**Q:** // repeat for CCCC(O)C1CC(C(C)C)CCC1C (stereo not drawn) and report
**A:** 9

**Q:** Note, next up: O=C1N=C2SC=C(NC(=S)Nc3ccccc3)N2NC12c1ccccc1-c1ccccc12
**A:** 59

**Q:** Moving on to the next compound: O=c1[nH]c2ccc(Cl)cc2o1
**A:** -41

**Q:** What about this compound? CCOC1=C/C(=N\Nc2ccc([N+](=O)[O-])cc2)CCC1
**A:** 17

**Q:** What do we get for C[CH2][Sn]([CH2]C)([O]C(=O)C(N)Cc1ccccc1)[O]C(=O)C(N)Cc1ccccc1 (stereo not drawn) ?
**A:** 23

* * *

experimentNotes: NCI Yeast Anticancer Drug Screen. Data for the rad52 strain (AID 147);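 further: 0% = growth of vehicle-treated control cultures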
reportedConditions: S. cerevisiae rad52 mutant growth inhibition; at 33.0 µM; active compounds read high
Compounds without any hit were thinned out: in the full panel of roughly 79,000, 15% have a hit.
growth inhibition for assorted compounds
Express your answer in %, writing the number without its unit.

>  <compound>
Nc1ncnc2c1ncn2C1OC(CO)CC1O (configuration not stated)

>  <growth inhibition (%)>
71

$$$$
>  <compound>
Nc1nc(N)c2nc(CNc3ccc(C(=O)NC(CCC(=O)O)C(=O)O)cc3F)cnc2n1 (configuration not stated)

>  <growth inhibition (%)>
82

$$$$
>  <compound>
Cc1csc(=S)n1OC(=O)NC1CCCCC1

>  <growth inhibition (%)>
99

$$$$

**Q:** Recorded growth inhibition for CC(C)(C)c1ccc(NS(=O)(=O)c2ccc(N)cc2)cc1 , please?
**A:** 6

**Q:** Similarly, CCCCOC(=O)Nc1ccc(C)c(NC(=O)OCCCC)c1 ?
**A:** 26

**Q:** // query: CN1CCN(C(=O)/C=C/C(=O)c2ccccc2)CC1
**A:** 63

**Q:** What would you report for O=C(NCCCNCCN1C(=O)c2cccc3cc([N+](=O)[O-])cc(c23)C1=O)c1cc(-c2ccccc2)nc2ccccc12 ?
**A:** 38

**Q:** Try this compound next: C[C](C)(C)[Ge]([O][Ge]([c]1ccccc1)[c]1ccccc1)([O][Ge]([c]1ccccc1)[c]1ccccc1)[C](C)(C)C
**A:** 74

**Q:** Also, CCOC1(c2cccc([N+](=O)[O-])c2)c2ccccc2Oc2ccccc21 please.
**A:** 10

**Q:** Field entry: O=[N+]([O-])c1ccc(N/N=C/Cc2ccccc2)c([N+](=O)[O-])c1
**A:** 2

**Q:** Try this compound too: NC(N)=NS(=O)(=O)c1ccc(Nc2c3ccccc3nc3c(C(=O)NCCO)cccc23)cc1
**A:** 17

**Q:** Now give it for CCCCCCCCCCCC1=NCCO1 too.
**A:** 18

**Q:** Param item: CCCCC(CC)C(=O)[O][Sn]([CH2]CCC)([CH2]CCC)[O]C(=O)C(CC)CCCC (configuration not stated)
**A:** 92

**Q:** Consider next the compound Cc1sc2ccc3ccccc3c2[n+]1C in the same way.
**A:** 3

**Q:** Again, but for CC(=O)OC1CC2C(C)(C)C(=O)C=C[C@]2(C)C2CCC3(C)C(=CCC3[C@H](CO)C[C@H](O)C(=O)C(C)(C)O)[C@]12C (some centres not stated)
**A:** 11

**Q:** Next up: CC(=O)OCC(C)Cc1cc2c(cc1Br)OCO2 (configuration not stated)
**A:** -3

**Q:** // next record O=[N+]([O-])c1cc(F)c(F)cc1Sc1cc(F)c(F)cc1[N+](=O)[O-]
**A:** 98

**Q:** Param item: c1ccc2cc(NCNc3ccc4ccccc4c3)ccc2c1
**A:** 1

**Q:** CNCCCNc1c2ccccc2nc2cccc([N+](=O)[O-])c12 , same question.
**A:** 94

**Q:** What about this compound? c1ccc2c(OCC3CO3)cccc2c1 (configuration not stated)
**A:** 86

**Q:** And what about the compound COc1ccc(C(=O)c2ccccc2C(=O)c2ccccc2OC)cc1 ?
**A:** 6

**Q:** // same read-out, input: CCOC(=O)c1ccc(NC(=O)O/N=C(/Cl)C(C)C)cc1
**A:** 58

* * *

experimentNotes: NCI Yeast Anticancer Drug Screen. Data for the rad50EPP+ strain (AID 151);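 further: 0% = growth of vehicle-treated control cultures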
reportedConditions: S. cerevisiae rad50 mutant strain, at 1.2 µM, active compounds read high
Description: Growth inhibition of yeast strains with defined genetic alterations is measured as a screen for potential anti-cancer activity. Selected strains with alterations in DNA damage repair or cell cycle control were exposed to compounds and growth inhibition was measured relative to vehicle treated controls. The strain used in this assay is rad50EPP+
This is part of a sample that, as a whole, favours compounds with a hit. Of some 79,000 tested, about 15% had one in any assay.
// growth inhibition lookup, one value per entry
Answer format: numeric, % implied, no suffix.

// below: answered molecules
>  <molecule>
CC(NCCN(C)C)C1CCC2C3CCc4cc(O)ccc4C3CCC12C (centres undefined)

>  <unitAnnotation>
%

>  <growth inhibition>
26

$$$$
>  <molecule>
NCCNCCNc1ccc(NCCNCCN)c2c1C(=O)c1c(O)ccc(O)c1C2=O

>  <unitAnnotation>
%

>  <growth inhibition>
9

$$$$

**Q:** Item under review: COc1ccc([N+](=O)[O-])c2c(NCCCN(C)C)c3ccccc3nc12 . Reported growth inhibition?
**A:** -3

**Q:** What would you report for COc1ccc(C(=O)Oc2ccccc2Br)cc1 ?
**A:** 13

**Q:** Now this one: COc1ccc(C/C=N/Nc2ccc([N+](=O)[O-])cc2)cc1OC
**A:** 15

**Q:** Note, next up: Cc1ccc(NC(c2ccccc2)c2ccc3cccnc3c2O)cc1 (centres undefined)
**A:** -3

**Q:** Also CC(=O)OCC(C)Cc1cc2c(cc1Br)OCO2 (centres undefined) ?
**A:** -9

**Q:** CC(C)c1ccc(NC(=S)NC(=O)c2ccccc2)cc1 ?
**A:** -2

**Q:** And then CC(C)CN(CC(C)C)C(=O)c1ccc(Cl)c(Cl)c1 , what is it?
**A:** -2

* * *

experimentNotes: NCI Yeast Anticancer Drug Screen. Data for the sgs1 strain (AID 173);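 further: 0% = growth of vehicle-only control cultures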
reportedConditions: S. cerevisiae sgs1 mutant, at 1.2 µM, active compounds read high
The panel holds about 79,000 compounds, 15% with a hit somewhere; the sample as a whole holds those more often.
Here, each record is paired with measured growth inhibition data.
Return type: number; implicit unit %.

Use these answered entries as a reference point.
>  <compoundStructureString>
Cc1c(-c2ccccn2)ccc2ccccc12

>  <unitAnnotation>
%

>  <growth inhibition>
-2

$$$$
>  <compoundStructureString>
C/C(=N\Nc1ccc([N+](=O)[O-])cc1[N+](=O)[O-])c1sc(-n2nc(-c3ccccc3)cc2-c2ccccc2)nc1C

>  <unitAnnotation>
%

>  <growth inhibition>
0

$$$$
>  <compoundStructureString>
Oc1ccc(-c2nc(-c3ccc(F)cc3)c(-c3ccc4ccccc4n3)[nH]2)cc1

>  <unitAnnotation>
%

>  <growth inhibition>
-34

$$$$

In the following, a different compound is considered.
**Q:** Return reported growth inhibition; argument: Cc1c2cc[n+](Cc3ccc(I)cc3)cc2c(C)c2c1[nH]c1ccccc12
**A:** 42

* * *

experimentNotes: NCI Yeast Anticancer Drug Screen. Data for the rad14 strain (AID 159);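 further: 0% = growth of vehicle-treated control cultures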
reportedConditions: S. cerevisiae rad14 strain growth inhibition; at 100.0 µM; active compounds read high
About 79,000 compounds went through this panel and 15% of them were active in at least one assay; those are over-represented in the sample as a whole.
Measured growth inhibition determines class: label 0: < 20%; label 1: ≥ 20% and < 90%; label 2: ≥ 90%

Worked examples follow.
>  <compound>
CCOC1Oc2ccccc2-c2nc(N)ncc21 (configuration not stated)

>  <classLabel>
label 0

$$$$
>  <compound>
O=C(c1ccc([N+](=O)[O-])cc1)C1N=NCC1c1ccccc1 (configuration not stated)

>  <classLabel>
label 1

$$$$
>  <compound>
Cc1cc2c3ccccc3c3ccccc3c2nn1

>  <classLabel>
label 0

$$$$
>  <compound>
CCC(=O)c1cc(C(=O)C(=S)SC)cc(C(=O)C(=S)SC)c1

>  <classLabel>
label 2

$$$$
>  <compound>
Cc1ccc2nc(-c3cccc([N+](=O)[O-])c3)oc(=O)c2c1

>  <classLabel>
label 0

$$$$

**Q:** Which of the defined bands does the recorded growth inhibition of CCOC(=O)C#Cc1ccc([N+](=O)[O-])cc1 sit within?
**A:** label 0

**Q:** # iterate: CCn1c(O)c(C=Nc2ccccc2)s/c1=N/Nc1nc(-c2ccccc2)cs1
**A:** label 0
